Protocol text: total protein half-life in vivo (active degradation + dilution); higher = more stable protein
Run conditions: wild type E. coli NCM3722; growth: N-lim chemostat; doubling time 12 h

# Query sequence, total protein half-life in vivo
data = [
    ("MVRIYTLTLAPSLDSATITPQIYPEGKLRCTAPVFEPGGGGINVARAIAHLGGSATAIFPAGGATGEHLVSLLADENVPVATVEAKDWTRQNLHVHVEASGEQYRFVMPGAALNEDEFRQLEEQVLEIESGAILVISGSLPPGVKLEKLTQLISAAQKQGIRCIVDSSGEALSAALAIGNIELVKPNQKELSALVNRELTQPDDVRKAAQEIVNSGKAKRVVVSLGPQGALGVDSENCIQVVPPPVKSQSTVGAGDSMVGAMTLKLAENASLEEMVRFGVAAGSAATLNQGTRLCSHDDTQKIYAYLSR", "6.92 h"),
    ("MPLPDFRLIRLLPLAALVLTACSVTTPKGPGKSPDSPQWRQHQQDVRNLNQYQTRGAFAYISDQQKVYARFFWQQTGQDRYRLLLTNPLGSTELELNAQPGNVQLVDNKGQRYTADDAEEMIGKLTGMPIPLNSLRQWILGLPGDATDYKLDDQYRLSEITYSQNGKNWKVVYGGYDTKTQPAMPANMELTDGGQRIKLKMDNWIVK", "13.2 h"),
    ("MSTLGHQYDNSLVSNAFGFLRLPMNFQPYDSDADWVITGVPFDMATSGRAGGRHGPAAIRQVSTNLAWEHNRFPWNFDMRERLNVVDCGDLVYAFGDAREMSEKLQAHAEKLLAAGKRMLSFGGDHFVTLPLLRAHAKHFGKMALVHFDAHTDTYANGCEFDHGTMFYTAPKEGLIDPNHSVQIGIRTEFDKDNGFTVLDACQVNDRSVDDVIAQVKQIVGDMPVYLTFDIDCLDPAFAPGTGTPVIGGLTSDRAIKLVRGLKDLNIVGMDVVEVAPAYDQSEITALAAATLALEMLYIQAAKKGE", "11.9 h"),
]

* * *

Protocol text: total protein half-life in vivo (active degradation + dilution); higher = more stable protein
Run conditions: E. coli NCM3722 delta-hslV; growth: N-lim chemostat; doubling time 6 h
Parameter: total protein half-life in vivo (h)

# Query sequence, Val
records = [
    ("MAAKDRIQAIKQMVANDKKVTVSNLSGIFQVTEETIRRDLEKLEDEGFLTRTYGGAVLNTAMLTENIHFYKRASSFYEEKQLIARKALPFIDNKTTMAADSSSTVMELLKLLQDRSGLTLLTNSAEAIHVLAQSEIKVVSTGGELNKNTLSLQGRITKEIIRRYHVDIMVMSCKGLDINSGALDSNEAEAEIKKTMIRQATEVALLVDHSKFDRKAFVQLADFSHINYIITDKSPGAEWIAFCKDNNIQLVW", 5.31),
    ("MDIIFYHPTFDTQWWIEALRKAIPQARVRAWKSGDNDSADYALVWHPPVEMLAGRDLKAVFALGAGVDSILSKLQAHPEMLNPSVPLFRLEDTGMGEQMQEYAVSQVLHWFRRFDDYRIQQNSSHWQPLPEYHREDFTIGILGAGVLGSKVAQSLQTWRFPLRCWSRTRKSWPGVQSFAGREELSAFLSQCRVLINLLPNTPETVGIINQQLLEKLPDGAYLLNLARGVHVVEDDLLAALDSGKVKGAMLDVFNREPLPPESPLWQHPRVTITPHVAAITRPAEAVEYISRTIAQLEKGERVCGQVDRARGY", 5.71),
    ("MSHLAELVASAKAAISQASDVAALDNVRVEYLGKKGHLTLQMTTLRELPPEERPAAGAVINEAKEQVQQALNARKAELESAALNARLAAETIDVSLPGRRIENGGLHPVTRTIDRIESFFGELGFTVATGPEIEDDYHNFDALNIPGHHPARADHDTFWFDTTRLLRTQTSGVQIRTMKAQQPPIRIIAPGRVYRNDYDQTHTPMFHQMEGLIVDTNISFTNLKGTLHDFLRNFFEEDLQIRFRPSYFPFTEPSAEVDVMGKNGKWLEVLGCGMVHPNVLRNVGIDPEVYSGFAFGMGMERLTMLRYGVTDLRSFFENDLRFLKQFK", 5.72),
    ("MQILLANPRGFCAGVDRAISIVENALAIYGAPIYVRHEVVHNRYVVDSLRERGAIFIEQISEVPDGAILIFSAHGVSQAVRNEAKSRDLTVFDATCPLVTKVHMEVARASRRGEESILIGHAGHPEVEGTMGQYSNPEGGMYLVESPDDVWKLTVKNEEKLSFMTQTTLSVDDTSDVIDALRKRFPKIVGPRKDDICYATTNRQEAVRALAEQAEVVLVVGSKNSSNSNRLAELAQRMGKRAFLIDDAKDIQEEWVKEVKCVGVTAGASAPDILVQNVVARLQQLGGGEAIPLEGREENIVFEVPKELRVDIREVD", 2.78),
    ("MQEIMQFVGRHPILSIAWIALLVAVLVTTFKSLTSKVKVITRGEATRLINKEDAVVVDLRQRDDFRKGHIAGSINLLPSEIKANNVGELEKHKDKPVIVVDGSGMQCQEPANALTKAGFAQVFVLKEGVAGWAGENLPLVRGK [P0AG27]", 6.06),
    ("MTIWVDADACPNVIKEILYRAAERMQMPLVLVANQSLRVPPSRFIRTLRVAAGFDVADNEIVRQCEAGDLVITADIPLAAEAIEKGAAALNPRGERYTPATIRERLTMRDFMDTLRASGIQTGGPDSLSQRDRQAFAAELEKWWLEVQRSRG [P0A8D3]", 3.2),
    ("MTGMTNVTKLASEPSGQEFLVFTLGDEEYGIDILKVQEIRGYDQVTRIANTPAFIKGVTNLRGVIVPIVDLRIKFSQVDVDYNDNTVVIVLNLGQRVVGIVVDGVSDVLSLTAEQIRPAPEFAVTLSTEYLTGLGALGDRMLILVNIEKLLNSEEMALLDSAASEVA [P0A964]", 5.25),
    ("MSSNFRHQLLSLSLLVGIAAPWAAFAQAPISSVGSGSVEDRVTQLERISNAHSQLLTQLQQQLSDNQSDIDSLRGQIQENQYQLNQVVERQKQILLQIDSLSSGGAAAQSTSGDQSGAAASTTPTADAGTANAGAPVKSGNANTDYNAAIALVQDKSRQDDAMVAFQNFIKNYPDSTYLPNANYWLGQLNYNKGKKDDAAYYFASVVKNYPKSPKAADAMFKVGVIMQDKGDTAKAKAVYQQVISKYPGTDGAKQAQKRLNAM", 5.26),
    ("MIKLSNITKVFHQGTRTIQALNNVSLHVPAGQIYGVIGASGAGKSTLIRCVNLLERPTEGSVLVDGQELTTLSESELTKARRQIGMIFQHFNLLSSRTVFGNVALPLELDNTPKDEVKRRVTELLSLVGLGDKHDSYPSNLSGGQKQRVAIARALASNPKVLLCDEATSALDPATTRSILELLKDINRRLGLTILLITHEMDVVKRICDCVAVISNGELIEQDTVSEVFSHPKTPLAQKFIQSTLHLDIPEDYQERLQAEPFTDCVPMLRLEFTGQSVDAPLLSETARRFNVNNNIISAQMDYAGGVKFGIMLTEMHGTQQDTQAAIAWLQEHHVKVEVLGYV", 6.04),
    ("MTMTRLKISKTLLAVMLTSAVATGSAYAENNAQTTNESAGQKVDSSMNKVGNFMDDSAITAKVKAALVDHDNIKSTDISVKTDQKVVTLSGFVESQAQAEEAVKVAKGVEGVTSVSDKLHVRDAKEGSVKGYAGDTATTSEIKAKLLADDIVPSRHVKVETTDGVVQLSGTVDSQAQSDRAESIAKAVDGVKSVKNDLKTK [P0AFH8]", 5.73),
    ("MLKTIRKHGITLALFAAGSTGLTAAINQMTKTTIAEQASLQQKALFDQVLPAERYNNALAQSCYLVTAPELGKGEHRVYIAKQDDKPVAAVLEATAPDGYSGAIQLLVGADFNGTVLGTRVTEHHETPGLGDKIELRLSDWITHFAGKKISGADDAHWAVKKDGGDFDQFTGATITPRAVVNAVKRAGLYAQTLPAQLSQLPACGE", 6.17),
    ("MKKTAAIISACMLTFALSACSGSNYVMHTNDGRTIVSDGKPQTDNDTGMISYKDANGNKQQINRTDVKEMVELDQ", 5.48),
]

* * *

Protocol text: total protein half-life in vivo (active degradation + dilution); higher = more stable protein
Run conditions: wild type E. coli NCM3722; growth: P-lim chemostat; doubling time 6 h
Below, each entry is listed alongside its reported total protein half-life in vivo.
Parameter: total protein half-life in vivo (h)

# Query sequence, Val
data = [
    ("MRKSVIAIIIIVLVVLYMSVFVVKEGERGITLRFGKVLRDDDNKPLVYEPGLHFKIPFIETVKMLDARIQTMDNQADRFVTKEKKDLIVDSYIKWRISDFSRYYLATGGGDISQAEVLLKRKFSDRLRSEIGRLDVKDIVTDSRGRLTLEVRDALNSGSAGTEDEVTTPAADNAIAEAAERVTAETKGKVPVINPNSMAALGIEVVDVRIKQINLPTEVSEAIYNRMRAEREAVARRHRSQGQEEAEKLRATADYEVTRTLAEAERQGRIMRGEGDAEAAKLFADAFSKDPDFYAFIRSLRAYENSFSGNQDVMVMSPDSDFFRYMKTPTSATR [P0ABC3]", 6),
    ("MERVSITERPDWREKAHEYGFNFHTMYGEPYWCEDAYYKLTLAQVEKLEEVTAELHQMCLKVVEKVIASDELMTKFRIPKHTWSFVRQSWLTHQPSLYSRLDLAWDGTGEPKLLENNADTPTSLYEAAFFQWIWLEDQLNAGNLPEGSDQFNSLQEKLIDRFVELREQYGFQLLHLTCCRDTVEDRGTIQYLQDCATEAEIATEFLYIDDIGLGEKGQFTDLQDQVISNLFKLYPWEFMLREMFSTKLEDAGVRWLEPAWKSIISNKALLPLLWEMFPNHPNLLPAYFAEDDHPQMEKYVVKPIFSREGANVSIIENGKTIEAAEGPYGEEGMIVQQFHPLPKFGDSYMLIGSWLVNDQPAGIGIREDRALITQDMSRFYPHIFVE [P0ADT5]", 5.65),
    ("MDFNLNDEQELFVAGIRELMASENWEAYFAECDRDSVYPERFVKALADMGIDSLLIPEEHGGLDAGFVTLAAVWMELGRLGAPTYVLYQLPGGFNTFLREGTQEQIDKIMAFRGTGKQMWNSAITEPGAGSDVGSLKTTYTRRNGKIYLNGSKCFITSSAYTPYIVVMARDGASPDKPVYTEWFVDMSKPGIKVTKLEKLGLRMDSCCEITFDDVELDEKDMFGREGNGFNRVKEEFDHERFLVALTNYGTAMCAFEDAARYANQRVQFGEAIGRFQLIQEKFAHMAIKLNSMKNMLYEAAWKADNGTITSGDAAMCKYFCANAAFEVVDSAMQVLGGVGIAGNHRISRFWRDLRVDRVSGGSDEMQILTLGRAVLKQYR", 5.45),
    ("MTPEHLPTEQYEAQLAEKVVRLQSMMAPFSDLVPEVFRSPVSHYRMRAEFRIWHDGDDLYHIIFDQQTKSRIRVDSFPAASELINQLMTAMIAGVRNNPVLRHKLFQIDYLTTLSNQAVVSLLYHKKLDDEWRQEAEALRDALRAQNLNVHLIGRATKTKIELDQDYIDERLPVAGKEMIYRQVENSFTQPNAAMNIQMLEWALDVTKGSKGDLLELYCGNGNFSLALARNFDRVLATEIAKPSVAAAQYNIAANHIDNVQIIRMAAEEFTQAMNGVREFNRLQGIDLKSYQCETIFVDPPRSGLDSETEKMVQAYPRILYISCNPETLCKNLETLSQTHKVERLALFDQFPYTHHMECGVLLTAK", 5.56),
    ("MSTLEPAAQSKPPGGFKLWLSQLQMKHGRKLVIALPYIWLILLFLLPFLIVFKISLAEMARAIPPYTELMEWADGQLSITLNLGNFLQLTDDPLYFDAYLQSLQVAAISTFCCLLIGYPLAWAVAHSKPSTRNILLLLVILPSWTSFLIRVYAWMGILKNNGVLNNFLLWLGVIDQPLTILHTNLAVYIGIVYAYVPFMVLPIYTALIRIDYSLVEAALDLGARPLKTFFTVIVPLTKGGIIAGSMLVFIPAVGEFVIPELLGGPDSIMIGRVLWQEFFNNRDWPVASAVAIIMLLLLIVPIMWFHKHQQKSVGEHG", 6.7),
    ("MALLPDKEKLLRNFLRCANWEEKYLYIIELGQRLPELRDEDRSPQNSIQGCQSQVWIVMRQNAQGIIELQGDSDAAIVKGLIAVVFILYDQMTPQDIVNFDVRPWFEKMALTQHLTPSRSQGLEAMIRAIRAKAAALS", 4.85),
    ("MIINNVKLVLENEVVSGSLEVQNGEIRAFAESQSRLPEAMDGEGGWLLPGLIELHTDNLDKFFTPRPKVDWPAHSAMSSHDALMVASGITTVLDAVAIGDVRDGGDRLENLEKMINAIEETQKRGVNRAEHRLHLRCELPHHTTLPLFEKLVQREPVTLVSLMDHSPGQRQFANREKYREYYQGKYSLTDAQMQQYEEEQLALAARWSQPNRESIAALCRARKIALASHDDATHAHVAESHQLGSVIAEFPTTFEAAEASRKHGMNVLMGAPNIVRGGSHSGNVAASELAQLGLLDILSSDYYPASLLDAAFRVADDQSNRFTLPQAVKLVTKNPAQALNLQDRGVIGEGKRADLVLAHRKDNHIHIDHVWRQGKRVF", 1.05),
    ("MNISDVAKITGLTSKAIRFYEEKGLVTPPMRSENGYRTYTQQHLNELTLLRQARQVGFNLEESGELVNLFNDPQRHSADVKRRTLEKVAEIERHIEELQSMRDQLLALANACPGDDSADCPIIENLSGCCHHRAG [P0A9G4]", 0.945),
    ("MSDERYQQRQQRVKEKVDARVAQAQDERGIIIVFTGNGKGKTTAAFGTATRAVGHGKKVGVVQFIKGTWPNGERNLLEPHGVEFQVMATGFTWDTQNRESDTAACREVWQHAKRMLADSSLDMVLLDELTYMVAYDYLPLEEVVQALNERPHQQTVIITGRGCHRDILELADTVSELRPVKHAFDAGVKAQIGIDY [P0A9H5]", 5.85),
    ("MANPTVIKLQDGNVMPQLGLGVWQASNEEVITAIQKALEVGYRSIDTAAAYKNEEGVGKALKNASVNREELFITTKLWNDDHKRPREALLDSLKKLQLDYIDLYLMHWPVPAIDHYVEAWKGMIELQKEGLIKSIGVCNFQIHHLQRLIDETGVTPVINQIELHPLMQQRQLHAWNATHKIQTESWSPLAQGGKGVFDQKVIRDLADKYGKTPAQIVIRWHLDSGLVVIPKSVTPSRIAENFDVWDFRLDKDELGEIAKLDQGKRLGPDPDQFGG", 5.85),
]
